# Test system: kochia (Kochia scoparia)
# EXPERIMENTAL_PROTOCOL: Test A postemergence, visual injury rating
# Assay type: in vivo
# MEASUREMENT_PARAMETERS: 125 g ai/ha, 0 is no effect, 100 is complete control
RECORDED_METRIC: Kochia plant response rating (0 to 100 scale)

MOLECULE: N#CCOC(=O)c1c(Br)cccc1Oc1ncc(Cl)cn1 [Compound 40]
RECORDED_NUMBER: 70
//
MOLECULE: CC(C)COC(=O)c1c(Br)cccc1Oc1ncc(Cl)cn1 [Compound 1]
RECORDED_NUMBER: 30
//
MOLECULE: N#CCCOC(=O)c1c(Br)cccc1Oc1ncc(Cl)cn1 [Compound 7]
RECORDED_NUMBER: 100
//
MOLECULE: CN(OCC(F)(F)F)C(=O)c1c(Br)cccc1Oc1ncc(Br)cn1 [Compound 24]
RECORDED_NUMBER: 0
//
MOLECULE: N#Cc1ccc(Oc2ncc(Cl)cn2)c(C(=O)OCCC(F)(F)F)c1 [Compound 64]
RECORDED_NUMBER: 0
//
MOLECULE: CC(CN(C)C(=O)c1c(Br)cccc1Oc1ncc(Cl)cn1)C(F)(F)F (stereo not shown) [Compound 18]
RECORDED_NUMBER: 0
//
MOLECULE: O=C(OCC1CC1(F)F)c1c(Br)cccc1Oc1ncc(Cl)cn1 (stereo not shown) [Compound 10]
RECORDED_NUMBER: 90
//
MOLECULE: FC(F)(F)C(F)(F)COCc1c(Br)cccc1Oc1ncc(Cl)cn1 [Compound 63]
RECORDED_NUMBER: 50
//
MOLECULE: O=C(OCC(F)(F)F)c1c(F)cccc1Oc1ncc(Cl)cn1 [Compound 48]
RECORDED_NUMBER: 0
//
MOLECULE: N#Cc1cccc(Oc2ncc(Cl)cn2)c1C(=O)OCC(F)(F)F [Compound 32]
RECORDED_NUMBER: 0
